These data points were gathered from PubChem BioAssay AID256.

Tested on: CD2F1 mice, L1210 leukemia ip, survival T/C
Assay: NCI In Vivo Anticancer Drug Screen. Data for tumor model L1210 Leukemia (intraperitoneal) in CD2F1 (CDF1) mice
Conditions: endpoint: mean survival time; dose: 400.0 mg/kg/injection; schedule: Q04DX003 (ip); vehicle: saline with Tween-80; higher = longer survival
Inconclusive results and toxic doses are left out.
Listing: T/C of selected molecules
propertyName: T/C

1. COc1ccc(NC(=S)NN)cc1	107 % of control
2. O=C(CCc1ccc(O)cc1)N/N=C/c1ccc2c(c1)OCO2	88 % of control
3. Cc1cc(N)c(C)c([N+](=O)[O-])c1	92 % of control
4. CCOC(=O)C(CCCCC(NC(C)=O)(C(=O)OCC)C(=O)OCC)(NC(C)=O)C(=O)OCC	92 % of control
5. O=[N+]([O-])c1ccc(N=Nc2ccccc2)cc1	92 % of control
6. CC(=O)N1C2=CCCC3CCCCC23c2ccccc21 (stereo not drawn)	101 % of control
7. COC(=N)Cc1ccc(OC)c(OC)c1	94 % of control
8. COC(=O)C1(C)CCCC2(C)C1CCC1(O)C2CC2OC2(C(C)C)C1O (stereo not drawn)	87 % of control
9. CC(=O)c1ccc(N=C2C=CC(=O)O2)cc1	96 % of control
10. CC1(C)C=C(Cc2ccccc2)C(=O)c2ccccc21	97 % of control
11. CCO/C=C1\SC(=S)N(c2ccccc2C)C1=O	113 % of control
12. COc1ccc(NC(=O)C(Cl)Cl)ccc1=O	98 % of control
13. N#Cc1c(F)c(F)cc(F)c1F	93 % of control
